# Tested on: HT-22
# METHOD NOTES: Safety ratio of MTC to that of PC50
# Format: functional, Mus musculus
Measured Ratio, listed per entry for reference.

{"columns": ["MOLECULE", "Ratio"],
 "data": [
  ["CCOc1ccc2c(c1)C=CC1(CCN(CC3CC3)CC1)N2", 260],
  ["CC(C)(C)C(=O)Oc1ccc2c(c1)C=CC1(CCCCC1)N2", 1.4],
  ["CCOc1ccc2c(c1)C(C)CC(C)(C)N2 (configuration not stated)", 58],
  ["CCOc1c(C(C)C)cc2c(c1C(C)C)C=CC1(CCCCC1)N2", 83],
  ["CCOc1c(C)c(C)c2c(c1C)CCC(C)(C)N2", 250],
  ["CCOc1c(C(C)(C)C)cc2c(c1C(C)(C)C)C=CC(C)(C)N2", 250],
  ["CCOc1ccc2c(c1)C(C)=CC(C)(C)N2 [E324]", 122],
  ["CCOc1ccc2c(c1)C=CC1(CCNCC1)N2", 20],
  ["CCOc1c(C)cc2c(c1C)CCC(C)(C)N2", 625],
  ["CCOc1ccc2c(c1)C=CC(C)(C)N2", 132],
  ["CCOc1c(C(C)C)cc2c(c1C(C)C)C=CC(C)(C)N2", 143],
  ["CCOc1c(C)cc2c(c1C)CCC1(CCCCC1)N2", 1000]
]}
